Value source: the NIST ThermoML archive (doi:10.1016/j.jct.2016.07.017)

Assay: activity coefficient (dimensionless); of the first substance listed, at infinite dilution; xn = mol fraction of the nth substance listed
Conditions: 338.15 K; 101.33 kPa; Liquid; Chromatography; x1 = 0
# if value of activity coefficient reaches 4, tag met; if it stays below, tag not met

Cc1ccccc1C [1,2-dimethylbenzene] + CC[N+](C)(CC)CCOC.O=S(=O)([N-]S(=O)(=O)C(F)(F)F)C(F)(F)F; not met
CCc1ccccc1 [ethylbenzene] + CC[N+](C)(CC)CCOC.O=S(=O)([N-]S(=O)(=O)C(F)(F)F)C(F)(F)F; not met
CCC(C)(C)OC [2-methoxy-2-methylbutane] + CC[N+](C)(CC)CCOC.O=S(=O)([N-]S(=O)(=O)C(F)(F)F)C(F)(F)F; not met

[ask] Assess whether reported activity coefficient for CCOC(C)(C)C [2-ethoxy-2-methylpropane] + CC[N+](C)(CC)CCOC.O=S(=O)([N-]S(=O)(=O)C(F)(F)F)C(F)(F)F sits at 4 or higher.
[reply] met

[ask] Assess whether reported activity coefficient for c1ccccc1 [benzene] + CC[N+](C)(CC)CCOC.O=S(=O)([N-]S(=O)(=O)C(F)(F)F)C(F)(F)F sits at 4 or higher.
[reply] not met

[ask] Assess whether reported activity coefficient for Cc1cccc(C)c1 [1,3-dimethylbenzene] + CC[N+](C)(CC)CCOC.O=S(=O)([N-]S(=O)(=O)C(F)(F)F)C(F)(F)F sits at 4 or higher.
[reply] not met

[ask] Assess whether reported activity coefficient for CCC(C)(C)C [2,2-dimethylbutane] + CC[N+](C)(CC)CCOC.O=S(=O)([N-]S(=O)(=O)C(F)(F)F)C(F)(F)F sits at 4 or higher.
[reply] met

---

Each entry below lists one item and its recorded activity coefficient value.
Assay: activity coefficient (dimensionless); of the first substance listed, at infinite dilution; xn = mol fraction of the nth substance listed
Details: 338.15 K; 101.33 kPa; Liquid; Chromatography; x1 = 0
# answer = number (no unit)

# count of solved cases: 3
CCCOCCC [dipropyl ether] + CC[N+](C)(CC)CCOC.O=S(=O)([N-]S(=O)(=O)C(F)(F)F)C(F)(F)F; 6.41
CCCCCCCCCC [decane] + CC[N+](C)(CC)CCOC.O=S(=O)([N-]S(=O)(=O)C(F)(F)F)C(F)(F)F; 65.4
CCCCCCCC [octane] + CC[N+](C)(CC)CCOC.O=S(=O)([N-]S(=O)(=O)C(F)(F)F)C(F)(F)F; 31.9

Could you now look at the following compound, please?
[ask] GET /values?readout=activity coefficient&item= CCCCCCC [heptane] + CC[N+](C)(CC)CCOC.O=S(=O)([N-]S(=O)(=O)C(F)(F)F)C(F)(F)F
[reply] 22.3

---

Assay: activity coefficient (dimensionless); of the first substance listed, at infinite dilution; xn = mol fraction of the nth substance listed
Conditions: 338.15 K; 101.33 kPa; Liquid; Chromatography; x1 = 0
Each entry below lists one item and its recorded activity coefficient value.
# answer = number (no unit)

CCO [ethanol] + CC[N+](C)(CC)CCOC.O=S(=O)([N-]S(=O)(=O)C(F)(F)F)C(F)(F)F; 1.5

[ask] GET /values?readout=activity coefficient&item= CCCCCCCCC [nonane] + CC[N+](C)(CC)CCOC.O=S(=O)([N-]S(=O)(=O)C(F)(F)F)C(F)(F)F
[reply] 45.3

[ask] GET /values?readout=activity coefficient&item= C1COCCO1 [1,4-dioxane] + CC[N+](C)(CC)CCOC.O=S(=O)([N-]S(=O)(=O)C(F)(F)F)C(F)(F)F
[reply] 0.704

[ask] GET /values?readout=activity coefficient&item= C=CCCCC [hex-1-ene] + CC[N+](C)(CC)CCOC.O=S(=O)([N-]S(=O)(=O)C(F)(F)F)C(F)(F)F
[reply] 8.33

[ask] GET /values?readout=activity coefficient&item= C=CCCCCC [1-heptene] + CC[N+](C)(CC)CCOC.O=S(=O)([N-]S(=O)(=O)C(F)(F)F)C(F)(F)F
[reply] 11.9

[ask] GET /values?readout=activity coefficient&item= CCCC(C)=O [pentan-2-one] + CC[N+](C)(CC)CCOC.O=S(=O)([N-]S(=O)(=O)C(F)(F)F)C(F)(F)F
[reply] 0.87

[ask] GET /values?readout=activity coefficient&item= CC(C)OC(C)C [diisopropyl ether] + CC[N+](C)(CC)CCOC.O=S(=O)([N-]S(=O)(=O)C(F)(F)F)C(F)(F)F
[reply] 6.16
